system: HepG2; experiment: cytotoxicity call (relative viability < 0.9); conditions: 10 µM
Out of some 39,000 compounds screened, about 3,300 (8.5%) were called active. This is one part of a sample in which actives are shown more often than they occur.
RESULT_TYPE: cytotoxicity call

[
  {
    "COMPOUND": "CNC(=O)[C@H]1O[C@@H](n2cnc3c(NCc4cccc(I)c4)ncnc32)[C@H](O)[C@@H]1O",
    "TESTED_ON": "HepG2",
    "MEAS_VALUE": "inactive"
  },
  {
    "COMPOUND": "CC(C)NC(=O)Nc1ccc2c(c1)C(=O)N([C@H](C)CO)C[C@@H](C)[C@@H](CN(C)CC1CCCCC1)OCCCC[C@@H](C)O2",
    "TESTED_ON": "HepG2",
    "MEAS_VALUE": "inactive"
  },
  {
    "COMPOUND": "COc1ccc(NC(=O)Nc2cccc3c2O[C@@H](CN(C)CC2CCCCC2)[C@@H](C)CN([C@@H](C)CO)C3=O)cc1",
    "TESTED_ON": "HepG2",
    "MEAS_VALUE": "inactive"
  },
  {
    "COMPOUND": "C[C@@H]1CN([C@@H](C)CO)C(=O)c2cc(NC(=O)Nc3ccc4c(c3)OCO4)ccc2O[C@@H](C)CCCCO[C@@H]1CN(C)C(=O)Cc1ccccc1",
    "TESTED_ON": "HepG2",
    "MEAS_VALUE": "inactive"
  },
  {
    "COMPOUND": "Cc1cccc(C)c1NC(=O)C1CCCCN1C.Cl (configuration not stated)",
    "TESTED_ON": "HepG2",
    "MEAS_VALUE": "inactive"
  },
  {
    "COMPOUND": "C[C@@H]1CN([C@H](C)CO)C(=O)c2cc(NC(=O)Nc3ccc(C(F)(F)F)cc3)ccc2O[C@H]1CN(C)C(=O)Nc1ccc2c(c1)OCO2",
    "TESTED_ON": "HepG2",
    "MEAS_VALUE": "inactive"
  }
]

Now examine the next entry.
(Q) State the recorded cytotoxicity call for this entry: C[C@H]1CN([C@@H](C)CO)C(=O)c2cc(NC(=O)Nc3ccc4c(c3)OCO4)ccc2O[C@@H]1CN(C)C(=O)Nc1ccc(C(F)(F)F)cc1
(A) inactive

---

system: HepG2; assay: cytotoxicity call (relative viability < 0.9); details: 10 µM
Out of some 39,000 compounds screened, about 3,300 (8.5%) were called active. The list comes from a sample in which actives are over-represented; it also holds close analogues and randomly drawn compounds.
RESULT_TYPE: cytotoxicity call

[
  {
    "STRUCTURE_AS_SMILES": "COc1ccc(S(=O)(=O)Nc2ccc3c(c2)C(=O)N([C@@H](C)CO)C[C@H](C)[C@H](CN(C)C(=O)Nc2ccc(C(F)(F)F)cc2)OCCCC[C@@H](C)O3)cc1",
    "RESULT_TYPE": "cytotoxicity call",
    "MEAS_VALUE": "inactive"
  },
  {
    "STRUCTURE_AS_SMILES": "COc1ccc([Si](C)(C)[C@@H]2[C@@H](CCO)O[C@]3(C(=O)N(Cc4ccc(N(C=O)c5ccccc5)cc4)c4ccccc43)[C@H]2C)cc1",
    "RESULT_TYPE": "cytotoxicity call",
    "MEAS_VALUE": "active"
  },
  {
    "STRUCTURE_AS_SMILES": "Cc1cc(C(=O)Nc2cccc3c2O[C@H](CN(C)C(=O)NC(C)C)[C@H](C)CN([C@H](C)CO)C3=O)n(C)n1",
    "RESULT_TYPE": "cytotoxicity call",
    "MEAS_VALUE": "inactive"
  },
  {
    "STRUCTURE_AS_SMILES": "Cc1ccc(S(=O)(=O)N(C)C[C@@H]2Oc3c(NC(=O)Nc4cccc5ccccc45)cccc3C(=O)N([C@@H](C)CO)C[C@H]2C)cc1",
    "RESULT_TYPE": "cytotoxicity call",
    "MEAS_VALUE": "inactive"
  },
  {
    "STRUCTURE_AS_SMILES": "OC[C@@H]1CC[C@@H]2O[C@H](CCc3ccc(C#Cc4ccccc4)cc3)[C@H](n3cc(-c4ccccc4)nn3)C[C@@H]2O1",
    "RESULT_TYPE": "cytotoxicity call",
    "MEAS_VALUE": "inactive"
  },
  {
    "STRUCTURE_AS_SMILES": "C[C@@H]1CN([C@H](C)CO)S(=O)(=O)c2ccc(C#Cc3cccnc3)cc2O[C@H]1CN(C)CC1CCCC1",
    "RESULT_TYPE": "cytotoxicity call",
    "MEAS_VALUE": "inactive"
  },
  {
    "STRUCTURE_AS_SMILES": "C[C@H]1CN([C@@H](C)CO)C(=O)CCCn2nncc2CO[C@H]1CN(C)S(=O)(=O)c1ccc(Cl)cc1",
    "RESULT_TYPE": "cytotoxicity call",
    "MEAS_VALUE": "active"
  },
  {
    "STRUCTURE_AS_SMILES": "Cc1nc2ccc([N+](=O)[O-])cc2s1",
    "RESULT_TYPE": "cytotoxicity call",
    "MEAS_VALUE": "inactive"
  }
]

(Q) Please look up its cytotoxicity call: O=C(C[C@@H]1C[C@@H]2c3cc(NC(=O)NC4CCCC4)ccc3O[C@@H]2[C@H](CO)O1)NCc1ccc2c(c1)OCO2
(A) inactive

(Q) What does the record list as cytotoxicity call for COc1ccc(S(=O)(=O)Nc2ccc3c(c2)C(=O)N([C@@H](C)CO)C[C@@H](C)[C@@H](CN(C)C(=O)Nc2ccc(C(F)(F)F)cc2)OCCCC[C@@H](C)O3)cc1 ?
(A) active

(Q) # query: cytotoxicity call of entry COc1ccc(S(=O)(=O)Nc2ccc3c(c2)C(=O)N([C@H](C)CO)C[C@H](C)[C@H](CN(C)C(=O)Nc2ccc(C(F)(F)F)cc2)OCCCC[C@H](C)O3)cc1
(A) inactive

(Q) Any idea what cytotoxicity call was measured for COc1ccc([Si](C)(C)[C@H]2[C@H](CCO)O[C@@]3(C(=O)N(Cc4ccc(N(C=O)c5ccccc5)cc4)c4ccccc43)[C@@H]2C)cc1 ?
(A) active

(Q) cytotoxicity call lookup needed for OC[C@H]1CC[C@@H]2O[C@H](CCc3ccc(C#Cc4ccccc4)cc3)[C@@H](n3cc(-c4ccccc4)nn3)C[C@@H]2O1 , thanks.
(A) active

(Q) I am curious: what cytotoxicity call value has been reported for CCCCc1oc2ccc(NS(C)(=O)=O)cc2c1C(=O)c1ccc(OCCCN(CCCC)CCCC)cc1 ?
(A) active

(Q) Consider the compound shown here: C[C@H]1CN([C@@H](C)CO)C(=O)CCCn2nncc2CO[C@H]1CN(C)C(=O)Nc1ccccc1C(F)(F)F What is its recorded cytotoxicity call?
(A) active

(Q) Reported cytotoxicity call, compound CCCCc1oc2ccc(NS(C)(=O)=O)cc2c1C(=O)c1ccc(OCCCN(CCCC)CCCC)cc1.Cl : ____
(A) active

(Q) Request the reported cytotoxicity call associated with C[C@@H]1CCCCO[C@H](CN(C)C(=O)Nc2ccccc2)[C@H](C)CN([C@@H](C)CO)C(=O)c2cc(NC(=O)Nc3ccc(F)cc3)ccc2O1
(A) inactive

(Q) I'd like to know its cytotoxicity call. The compound in question is C[C@H]1[C@H]([Si](C)(C)F)[C@@H](CCO)O[C@]12C(=O)N(Cc1cccc(N(C=O)c3ccccc3)c1)c1ccccc12
(A) inactive

(Q) Entry C[C@@H]1CN([C@@H](C)CO)C(=O)c2cccc(NC(=O)c3ccc(-c4nccs4)cc3)c2O[C@H]1CN(C)C(=O)Nc1ccccc1 : reported cytotoxicity call = ?
(A) inactive
